Biological target: UniProtKB P21556
Sequence (P21556 whole entry): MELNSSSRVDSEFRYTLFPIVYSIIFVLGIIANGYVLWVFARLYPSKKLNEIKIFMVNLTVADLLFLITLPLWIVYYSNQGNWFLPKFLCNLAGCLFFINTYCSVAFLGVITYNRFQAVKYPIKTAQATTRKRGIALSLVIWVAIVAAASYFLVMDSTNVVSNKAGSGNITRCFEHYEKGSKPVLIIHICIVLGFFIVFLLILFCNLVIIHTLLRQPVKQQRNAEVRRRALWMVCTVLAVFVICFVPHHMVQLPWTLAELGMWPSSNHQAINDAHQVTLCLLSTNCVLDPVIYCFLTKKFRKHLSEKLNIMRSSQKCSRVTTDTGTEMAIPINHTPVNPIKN
Assay: Ability to prevent PAF-induced bronchoconstriction in guinea pig when administered intravenously
Type: functional
readout-label: ID50
Please report the result as a number followed by the unit.

Worked cases, answers included:
[
  {
    "smiles-str": "CCCCCC/C(=C\\C=C\\C(=O)N[C@H](C)CCCc1cccnc1)c1ccc(OC)cc1",
    "ID50": "0.07 mg/kg"
  },
  {
    "smiles-str": "COc1ccc(C(=C/C=C/C(=O)NC(C)(C)CCCc2cccnc2)c2ccc(OC)cc2)cc1",
    "ID50": "0.27 mg/kg"
  },
  {
    "smiles-str": "COc1ccc(/C(=C\\C=C\\C(=O)N[C@H](C)CCCc2cccnc2)c2ccccc2)cc1",
    "ID50": "0.5 mg/kg"
  },
  {
    "smiles-str": "Cc1ccc(C(=C/C=C/C(=O)N[C@H](C)CCCc2cccnc2)c2ccc(C)cc2)cc1",
    "ID50": "0.3 mg/kg"
  },
  {
    "smiles-str": "COc1ccc(C(=C/C=C/C(=O)Nc2ccc(-c3cccnc3)cc2)c2ccc(OC)cc2)cc1",
    "ID50": "0.15 mg/kg"
  },
  {
    "smiles-str": "CCCC/C(=C\\C=C\\C(=O)N[C@H](C)CCCc1cccnc1)c1ccc(OC)cc1",
    "ID50": "0.68 mg/kg"
  },
  {
    "smiles-str": "COc1cccc(C(=C/C=C/C(=O)NCCCCc2cccnc2)c2cccc(OC)c2)c1",
    "ID50": "0.36 mg/kg"
  },
  {
    "smiles-str": "CCCCCCCC/C(=C\\C=C\\C(=O)N[C@H](C)CCCc1cccnc1)c1ccc(OC)cc1",
    "ID50": "0.1 mg/kg"
  }
]

Q: Requested field: ID50. Item: "COc1ccc(C(=C/C=C/C(=O)N[C@H](C)CCCc2cccnc2)c2ccc(OC)cc2)cc1"
Result: 0.25 mg/kg

----------
System: Cavia porcellus
Experiment: Ability to prevent PAF-induced bronchoconstriction in guinea pig when administered at a dose of 1 mg/kg intravenously
Assay type: functional
Details: route intravenous
readout-label: inhibition in vivo at 1 mg/kg
Please report the result as a number followed by the unit.

Worked cases, answers included:
[
  {
    "smiles-str": "COc1ccc(/C(=C\\C=C\\C(=O)N[C@H](C)CCCc2cccnc2)C2CCCCC2)cc1",
    "reported": "18%"
  },
  {
    "smiles-str": "COc1ccc(C(=C/C=C/C(=O)NCCCOc2cccnc2)c2ccc(OC)cc2)cc1",
    "reported": "43%"
  }
]

Q: Requested field: inhibition in vivo at 1 mg/kg. Item: "CCC[C@H](CCCc1cccnc1)NC(=O)/C=C/C=C(c1ccc(OC)cc1)c1ccc(OC)cc1"
Result: 24%

----------
Catalogue of compounds with associated ED50
Tested on: Cavia porcellus
Test: Inhibitory activity against bronchoconstriction in guinea pig 2 hr after peroral administration of compound
Assay type: functional
Conditions: Lung, po, read-out: ID50 (the source's name)
Give just the numeric value; mg/kg need not be written.

Worked cases, answers included:
[
  {
    "smiles-str": "CCCCC/C(=C\\C=C\\C(=O)N[C@H](C)CCCc1cccnc1)c1ccc(OC)cc1",
    "readout-label": "ED50",
    "reading-unit": "mg/kg",
    "reported": 16
  },
  {
    "smiles-str": "O=C(/C=C/C=C(c1ccc(F)cc1)c1ccc(F)cc1)NCCCCc1cccnc1",
    "readout-label": "ED50",
    "reading-unit": "mg/kg",
    "reported": 28
  },
  {
    "smiles-str": "COc1ccc(C(=C/C=C/C(=O)N[C@H](C)CCCc2cccnc2)c2ccc(OC)cc2)cc1",
    "readout-label": "ED50",
    "reading-unit": "mg/kg",
    "reported": 4
  }
]

Please find the next compound below.
Q: Requested field: ED50. Item: "O=C(/C=C/C=C(c1cccc(F)c1)c1cccc(F)c1)NCCCCc1cccnc1"
Result: 50
